# measurement.protocol: physchem
# Assay type: physicochemical
# study.conditions: water soluble analogue; read-out: pKa by 1H NMR, nitrogen closest to the linker
quantity.kind: pKa
Lab note: record the figure alone, no unit after it.

Short answer for "CN1CCN(CCCCN(CCC(=O)OC(C)(C)C)CCC(=O)OC(C)(C)C)CC1" : pKa was 7.5

* * *

# measurement.protocol: physchem
# Assay type: physicochemical
# study.conditions: water soluble analogue; read-out: pKa by 1H NMR, central nitrogen
quantity.kind: pKa
Lab note: record the figure alone, no unit after it.

Short answer for CN1CCN(CCCCN(CCC(=O)OC(C)(C)C)CCC(=O)OC(C)(C)C)CC1 [Lipid C24-WSA] : pKa was 3.7

* * *

# measurement.protocol: mRNA copies per LNP from molecular volume model and DLS diameter
# Type: physicochemical
# study.conditions: average mRNA copies per LNP
Listing of entries alongside the reported mRNA copies.
Lab note: record the figure alone, no unit after it.

In the examples that follow, each entry is paired with its recorded mRNA copies.
CCCCC/C=C\C/C=C\CCCCCCCCOC(=O)CCN(CCC(=O)OCCCCCCCC/C=C\C/C=C\CCCCC)CCN(C)C (racemic): 1.1
CCCCC/C=C\C/C=C\CCCCCCCCOC(=O)CCN(CCC(=O)OCCCCCCCC/C=C\C/C=C\CCCCC)CCN1CCN(C)CC1 (racemic): 4.3

Short answer for CCCCC/C=C\C/C=C\CCCCCCCCOC(=O)CCN(CCC(=O)OCCCCCCCC/C=C\C/C=C\CCCCC)CCN1CCCC1 (racemic) : mRNA copies was 1.5

Short answer for CCCCCCCCCCC(CCCCCCCC)COC(=O)CCN(CCCCN1CCN(C)CC1)CCC(=O)OCC(CCCCCCCC)CCCCCCCCCC (centres unmarked) : mRNA copies was 3.3

Short answer for CCCCCCCCCCC(CCCCCCCC)COC(=O)CCN(CCC(=O)OCC(CCCCCCCC)CCCCCCCCCC)CCN1CCN(C)CC1 (centres unmarked) : mRNA copies was 1.9

* * *

# measurement.protocol: Dynamic Light Scattering for LNP size
# Type: physicochemical
# study.conditions: number-average from DLS
quantity.kind: Diameter (nm)
# unit: nm | format: bare number

CCCCCCCCCCC(CCCCCCCC)COC(=O)CCN(CCC(=O)OCC(CCCCCCCC)CCCCCCCCCC)CCN1CCN(C)CC1 (centres unmarked) [BODD-C2/C2-PipZ]: 49
CCCCC/C=C\C/C=C\CCCCCCCCOC(=O)CCN(CCC(=O)OCCCCCCCC/C=C\C/C=C\CCCCC)CCN(C)C (racemic) [DL-C2/C2-DMA]: 40

Short answer for CCCCC/C=C\C/C=C\CCCCCCCCOC(=O)CCN(CCC(=O)OCCCCCCCC/C=C\C/C=C\CCCCC)CCN1CCCC1 (racemic) [DL-C2/C2-Pyr] : Diameter (nm) was 48

Short answer for CCCCCCCCCCC(CCCCCCCC)COC(=O)CCN(CCCCN1CCN(C)CC1)CCC(=O)OCC(CCCCCCCC)CCCCCCCCCC (centres unmarked) [BODD-C2/C4-PipZ] : Diameter (nm) was 55

Short answer for CCCCC/C=C\C/C=C\CCCCCCCCOC(=O)CCN(CCC(=O)OCCCCCCCC/C=C\C/C=C\CCCCC)CCN1CCN(C)CC1 (racemic) [DL-C2/C2-PipZ] : Diameter (nm) was 64

* * *

# Format: physicochemical
# study.conditions: LNP containing the ionizable lipid; Henderson Hasselbalch fit to zeta potential
Listing of entries alongside the reported pKa,ZP.
Lab note: record the figure alone, no unit after it.

In the examples that follow, each entry is paired with its recorded pKa,ZP.
CCCCC/C=C\C/C=C\CCCCCCCCOC(=O)CCN(CCC(=O)OCCCCCCCC/C=C\C/C=C\CCCCC)CCN1CCN(C)CC1 (racemic) [DL-C2/C2-PipZ]: 6.2
CCCCCCCCCCC(CCCCCCCC)COC(=O)CCN(CCC(=O)OCC(CCCCCCCC)CCCCCCCCCC)CCN1CCN(C)CC1 (centres unmarked) [BODD-C2/C2-PipZ]: 5.4
CCCCC/C=C\C/C=C\CCCCCCCCOC(=O)CCN(CCC(=O)OCCCCCCCC/C=C\C/C=C\CCCCC)CCN1CCCC1 (racemic) [DL-C2/C2-Pyr]: 6.8

Please examine the following record next.
Short answer for CCCCC/C=C\C/C=C\CCCCCCCCOC(=O)CCN(CCC(=O)OCCCCCCCC/C=C\C/C=C\CCCCC)CCN(C)C (racemic) [DL-C2/C2-DMA] : pKa,ZP was 6.9

* * *

# measurement.protocol: physchem
# Format: physicochemical
# study.conditions: water soluble analogue; read-out: pKa by 1H NMR, terminal nitrogen
quantity.kind: pKa
Lab note: record the figure alone, no unit after it.

Short answer for "CN1CCN(CCCCN(CCC(=O)OC(C)(C)C)CCC(=O)OC(C)(C)C)CC1" : pKa was 8.1

* * *

# Format: physicochemical
# study.conditions: LNP isoelectric pI from zeta potential
Label MET when pI, ZP >= 6; otherwise NOT MET.

Solved entries:
CCCCC/C=C\C/C=C\CCCCCCCCOC(=O)CCN(CCC(=O)OCCCCCCCC/C=C\C/C=C\CCCCC)CCN1CCN(C)CC1 (racemic): MET
CCCCC/C=C\C/C=C\CCCCCCCCOC(=O)CCN(CCC(=O)OCCCCCCCC/C=C\C/C=C\CCCCC)CCN1CCCC1 (racemic): MET
CCCCCCCCCCC(CCCCCCCC)COC(=O)CCN(CCCCN1CCN(C)CC1)CCC(=O)OCC(CCCCCCCC)CCCCCCCCCC (centres unmarked): NOT MET

Query: API: above_or_equal(metric=pI, ZP, cutoff=6) for item CCCCC/C=C\C/C=C\CCCCCCCCOC(=O)CCN(CCC(=O)OCCCCCCCC/C=C\C/C=C\CCCCC)CCN(C)C (racemic)
Reply: MET

* * *

# Type: physicochemical
# study.conditions: LNP containing the ionizable lipid
quantity.kind: pKa, TNS
Lab note: record the figure alone, no unit after it.

CCCCC/C=C\C/C=C\CCCCCCCCOC(=O)CCN(CCC(=O)OCCCCCCCC/C=C\C/C=C\CCCCC)CCN1CCN(C)CC1 (racemic) [DL-C2/C2-PipZ]: 7.8
CCCCC/C=C\C/C=C\CCCCCCCCOC(=O)CCN(CCC(=O)OCCCCCCCC/C=C\C/C=C\CCCCC)CCN(C)C (racemic) [DL-C2/C2-DMA]: 8.0
CCCCC/C=C\C/C=C\CCCCCCCCOC(=O)CCN(CCC(=O)OCCCCCCCC/C=C\C/C=C\CCCCC)CCN1CCCC1 (racemic) [DL-C2/C2-Pyr]: 7.9
CCCCCCCCCCC(CCCCCCCC)COC(=O)CCN(CCC(=O)OCC(CCCCCCCC)CCCCCCCCCC)CCN1CCN(C)CC1 (centres unmarked) [BODD-C2/C2-PipZ]: 6.6

Please examine the following record next.
Short answer for CCCCCCCCCCC(CCCCCCCC)COC(=O)CCN(CCCCN1CCN(C)CC1)CCC(=O)OCC(CCCCCCCC)CCCCCCCCCC (centres unmarked) [BODD-C2/C4-PipZ] : pKa, TNS was 7.0

* * *

Listing of entries alongside the reported ΔpKa = Classic-TNS.
# Type: physicochemical
# study.conditions: Table 11a
Lab note: record the figure alone, no unit after it.

CCCCCCCC(=O)N(CCCN(C)C)C(CCCCCCCCC(=O)OC(CCCCCC)CCCCCC)CCCCCCCCC(=O)OC(CCCCCC)CCCCCC: 3.24
CCCCCCCC(=O)N(CCCN1CCCC1)C(CCCCCCCCC(=O)OC(CCCC)CCCCCC)CCCCCCCCC(=O)OC(CCCC)CCCCCC (centres unmarked): 3.98
CCCCC/C=C\C/C=C\CCCCCCCCC(CCCCCCCC/C=C\C/C=C\CCCCC)OC(=O)CCCN(C)C: 2.96
CCCCCCCCCCOC(=O)CCCCCN(CCO)CCCCCCCC(=O)OC(CCCCCCCC)CCCCCCCC: 2.22
CCCCC/C=C\C/C=C\CCCCCCCCOCC(CN(C)C)OCCCCCCCC/C=C\C/C=C\CCCCC (centres unmarked): 1.8

Short answer for "CCCCCCCCCOC(=O)CCCCCCCN(CCO)CCCCCCCC(=O)OC(CCCCCCCC)CCCCCCCC" : ΔpKa = Classic-TNS was 2.34

Short answer for CCCCC/C=C\C/C=C\CCCCCCCCC1(CCCCCCCC/C=C\C/C=C\CCCCC)OCC(CCN(C)C)O1 (centres unmarked) : ΔpKa = Classic-TNS was 2.62

Short answer for CCCCCCCC/C=C\CCCCCCCC(=O)OCC(CN(C)C)OC(=O)CCCCCCC/C=C\CCCCCCCC (centres unmarked) : ΔpKa = Classic-TNS was 2.2
